Value source: patent US20220340564A1

- ASSAY_METHOD_TEXT: in vitro
- CONDITIONS_USED: mouse, hepatocytes
MEASUREMENT_LABEL: hepatocyte CLint (µL/min/1e6 cells)
One number for each entry, in µL/min/1e6 cells.

Quote hepatocyte CLint reported for CCc1nc2ncc(C)cn2c1C(=O)NCc1ccc(N2CCN(S(=O)(=O)C(F)(F)F)C=N2)c(F)c1 please.
12

====

- ASSAY_METHOD_TEXT: physchem
- CONDITIONS_USED: fessif, thermodynamic from solid
MEASUREMENT_LABEL: solubility thermodynamic (µg/mL)
One number for each entry, in µg/mL.

Quote solubility thermodynamic reported for CCc1nc2ncc(C)cn2c1C(=O)NCc1ccc(N2CCN(S(=O)(=O)C(F)(F)F)C=N2)c(F)c1 please.
16

====

- ASSAY_METHOD_TEXT: in vitro
- CONDITIONS_USED: human
MEASUREMENT_LABEL: fraction unbound
Answers are plain numbers.

Quote fraction unbound reported for CCc1nc2ncc(C)cn2c1C(=O)NCc1ccc(N2CCN(S(=O)(=O)C(F)(F)F)C=N2)c(F)c1 [Compound 161] please.
0.015

====

- ASSAY_METHOD_TEXT: in vitro
- CONDITIONS_USED: human, hepatocytes
MEASUREMENT_LABEL: hepatocyte CLint (µL/min/1e6 cells)
One number for each entry, in µL/min/1e6 cells.

Quote hepatocyte CLint reported for CCc1nc2ncc(C)cn2c1C(=O)NCc1ccc(N2CCN(S(=O)(=O)C(F)(F)F)C=N2)c(F)c1 please.
6.7

====

- Test system: Mycobacterium tuberculosis strain EH4.0 expressing green-fluorescent protein (GFP)
- ASSAY_METHOD_TEXT: microbe, parasite or virus in culture
- Format: cell-based
- CONDITIONS_USED: 168 h, read-out: pIC50 (converted)
MEASUREMENT_LABEL: IC50 (µM)
Answers are plain numbers, in µM.

Before answering, review these 4 worked examples.
CCc1nc2ncc(Cl)cn2c1C(=O)NCc1ccc(N2CCN(S(=O)(=O)C(F)(F)F)C=N2)c(F)c1 [Compound 146]
0.0038
Cc1cn2c(C(=O)NCc3ccc(N4CCN(S(=O)(=O)C(F)(F)F)C=N4)c(F)c3)c(C)nc2s1 [Compound 153]
0.00178
CCc1nc2nc(Cl)ccn2c1C(=O)NCc1ccc(N2CCN(S(=O)(=O)C(F)(F)F)C=N2)c(F)c1 [Compound 125]
0.00977
CCc1nc2ncc(C)cn2c1C(=O)NCc1cnc(N2CCN(S(=O)(=O)C(F)(F)F)C=N2)c(F)c1 [Compound 201]
0.012

# batch: return IC50 for each of the 2 compounds below
1. CCc1nc2cc(Br)c(C)cn2c1C(=O)NCc1ccc(N2CCN(S(=O)(=O)C(F)(F)F)C=N2)c(F)c1 [Compound 97]
2. CCc1nc2c(C)cc(F)cn2c1C(=O)NCc1ccc(N2CCN(S(=O)(=O)C(F)(F)F)C=N2)c(F)c1 [Compound 89]

1: 0.0339; 2: 0.0832

# batch: return IC50 for each of the 2 compounds below
1. O=C(NCc1ccc(N2CCN(S(=O)(=O)C(F)(F)F)C=N2)cc1)c1c(C2CC2)nc2ncc(Cl)cn12 [Compound 7]
2. CCc1nc2nc(OC)c(Cl)cn2c1C(=O)NCc1ccc(N2CCN(S(=O)(=O)C(F)(F)F)C=N2)c(F)c1 [Compound 86]

[0.0631, 0.0891]
